Molecular target: Lymphokine-activated killer T-cell-originated protein kinase (Homo sapiens)
Assay: Inhibition of human PBK (2 to 297 residues) assessed as enzyme activity at 1 uM using 33P ATP by radioactive filter binding assay
Set-up: scale not given: the % may be the effect or the level left

# input_smiles, measured_target, Activity / %
measured = [
    ("CCCCc1cc(-c2c[nH]c3ncccc23)nc(N)n1", "Lymphokine-activated killer T-cell-originated protein kinase (Homo sapiens)", -21),
    ("Nc1nccc(-c2c[nH]c3ncccc23)n1", "Lymphokine-activated killer T-cell-originated protein kinase (Homo sapiens)", -40),
    ("CCc1cc(-c2c[nH]c3ncc(-c4cnn(C5CCNCC5)c4)cc23)nc(N)n1", "Lymphokine-activated killer T-cell-originated protein kinase (Homo sapiens)", -95),
    ("CCCCc1cc(-c2c[nH]c3ncc(-c4cnn(C5CCNCC5)c4)cc23)nc(N)n1", "Lymphokine-activated killer T-cell-originated protein kinase (Homo sapiens)", -96),
]

----------
Molecular target: UniProt:Q13627
Experiment: Inhibition of human DYRK1A (1 to 502 residues) assessed as enzyme activity at 1 uM using 33P ATP by radioactive filter binding assay
Parameters: scale not given: the % may be the effect or the level left
Listing of recorded Activity by entry.

# compound, Activity (%)
data = [
    ("CCc1cc(-c2c[nH]c3ncc(-c4cnn(C5CCNCC5)c4)cc23)nc(N)n1", -94),
    ("Nc1nccc(-c2c[nH]c3ncccc23)n1 [MERIOLIN 1]", -95),
    ("CCCCc1cc(-c2c[nH]c3ncccc23)nc(N)n1", -90),
    ("CCCCc1cc(-c2c[nH]c3ncc(-c4cnn(C5CCNCC5)c4)cc23)nc(N)n1", -92),
]

----------
Molecular target: 3-phosphoinositide-dependent protein kinase 1 (Homo sapiens, UniProt O15530)
Sequence (O15530 whole entry): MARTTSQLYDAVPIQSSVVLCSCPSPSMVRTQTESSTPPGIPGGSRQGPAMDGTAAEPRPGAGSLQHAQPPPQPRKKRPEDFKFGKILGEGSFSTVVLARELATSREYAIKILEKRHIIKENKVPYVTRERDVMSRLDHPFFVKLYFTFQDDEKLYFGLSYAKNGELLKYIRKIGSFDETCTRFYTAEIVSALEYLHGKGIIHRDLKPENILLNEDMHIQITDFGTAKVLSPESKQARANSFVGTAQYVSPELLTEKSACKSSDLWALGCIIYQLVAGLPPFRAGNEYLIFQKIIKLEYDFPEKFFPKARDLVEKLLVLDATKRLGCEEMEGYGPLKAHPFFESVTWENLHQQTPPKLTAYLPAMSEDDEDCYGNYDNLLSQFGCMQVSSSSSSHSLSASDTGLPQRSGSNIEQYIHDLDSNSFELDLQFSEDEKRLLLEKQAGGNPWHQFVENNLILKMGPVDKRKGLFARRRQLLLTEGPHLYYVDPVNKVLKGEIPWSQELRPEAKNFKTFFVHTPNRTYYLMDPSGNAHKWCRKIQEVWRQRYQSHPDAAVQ
Test: Inhibition of PDK1 in human PC3 cells assessed as reduction in AKT Thr308 phosphorylation after 45 mins
Format: cell-based, PC-3
Listing of recorded IC50 by entry.

# input_smiles, IC50
rows = [
    ("CCCCCc1cc(-c2c[nH]c3ncccc23)nc(N)n1", "> 30 µM"),
    ("CCCCc1cc(-c2c[nH]c3ncc(-c4cnn(C5CCNCC5)c4)cc23)nc(N)n1", "2.3 µM"),
    ("CCc1cc(-c2c[nH]c3ncc(-c4cccnc4)cc23)nc(N)n1", "> 30 µM"),
    ("CCc1cc(-c2c[nH]c3ncc(-c4cnn(C)c4)cc23)nc(N)n1", "11 µM"),
    ("CCCCc1cc(-c2c[nH]c3ncccc23)nc(N)n1", "> 10 µM"),
    ("CCCc1cc(-c2c[nH]c3ncccc23)nc(N)n1", "> 30 µM"),
    ("CCc1cc(-c2c[nH]c3ncc(-c4ccncc4)cc23)nc(N)n1", "> 30 µM"),
    ("CCc1cc(-c2c[nH]c3ncc(-c4c(C)nn(C)c4C)cc23)nc(N)n1", "> 30 µM"),
    ("CCc1cc(-c2c[nH]c3ncc(-c4cn[nH]c4)cc23)nc(N)n1", "5.4 µM"),
    ("CCc1cc(-c2c[nH]c3ncc(-c4ccnn4C)cc23)nc(N)n1", "> 30 µM"),
]

----------
Test: Intrinsic clearance in mouse liver microsomes
Type: ADME
Conditions: read-out: CLH

# input_smiles, microsomal CLint
data = [
    ("CCCCc1cc(-c2c[nH]c3ncc(-c4cnn(C5CCNCC5)c4)cc23)nc(N)n1", "< 10 µL/min/mg"),
    ("CCc1cc(-c2c[nH]c3ncc(-c4cn[nH]c4)cc23)nc(N)n1", "> 70 µL/min/mg"),
    ("CCc1cc(-c2c[nH]c3ncc(-c4cnn(C5CCNCC5)c4)cc23)nc(N)n1", "< 10 µL/min/mg"),
]
